molecular target: Nonstructural protein 5 (Dengue virus); details: dengue virus type 3; dose 5.0 µM, time 30.0 min
Active and inactive are the calls of the source. No cut-off for these calls is given here.
reported-property: inhibition

Example entries and their recorded answers appear below.
> print(dat)
                              smiles.string    result
1  Cc1cc(S(=O)(=O)NC[C@H]2O[C@@H](n3cnc4c(=O)[nH]cnc43)[C@H](O)[C@@H]2O)ccc1Cl  inactive
2  CNc1ncnc2c1ncn2[C@@H]1O[C@H](CNS(=O)(=O)c2ccc(C)c([N+](=O)[O-])c2)[C@@H](O)[C@H]1O     76.6%
3  Cc1ccc(S(=O)(=O)N(C)C[C@H]2O[C@@H](n3cc(C#Cc4cnc5ccccc5c4)c4c(N)ncnc43)[C@H](O)[C@@H]2O)cc1[N+](=O)[O-]       96%
4  CCN(C[C@H]1O[C@@H](n2cnc3c(=O)[nH]cnc32)[C@H](O)[C@@H]1O)S(=O)(=O)c1ccc(OC)c(C#N)c1     89.8%
5  COc1ccc(S(=O)(=O)NC[C@H]2O[C@@H](n3cnc4c(=O)[nH]cnc43)[C@H](O)[C@@H]2O)cc1[N+](=O)[O-]  inactive
6  CCN(C[C@H]1O[C@@H](n2cnc3c(=O)[nH]cnc32)[C@H](O)[C@@H]1O)S(=O)(=O)c1ccc(Cl)c(C)c1  inactive

Okay, now this compound:
Q. Identify the measured inhibition of COc1ccc(S(=O)(=O)NC[C@H]2O[C@@H](n3cnc4c(=O)[nH]cnc43)[C@H](O)[C@@H]2O)cc1C#N for Nonstructural protein 5 (Dengue virus).
A. inactive

----------
biological target: mRNA cap guanine-N(7) methyltransferase (Homo sapiens, UniProt O43148); settings: dose 5.0 µM, time 30.0 min
Sequence (O43148 whole entry): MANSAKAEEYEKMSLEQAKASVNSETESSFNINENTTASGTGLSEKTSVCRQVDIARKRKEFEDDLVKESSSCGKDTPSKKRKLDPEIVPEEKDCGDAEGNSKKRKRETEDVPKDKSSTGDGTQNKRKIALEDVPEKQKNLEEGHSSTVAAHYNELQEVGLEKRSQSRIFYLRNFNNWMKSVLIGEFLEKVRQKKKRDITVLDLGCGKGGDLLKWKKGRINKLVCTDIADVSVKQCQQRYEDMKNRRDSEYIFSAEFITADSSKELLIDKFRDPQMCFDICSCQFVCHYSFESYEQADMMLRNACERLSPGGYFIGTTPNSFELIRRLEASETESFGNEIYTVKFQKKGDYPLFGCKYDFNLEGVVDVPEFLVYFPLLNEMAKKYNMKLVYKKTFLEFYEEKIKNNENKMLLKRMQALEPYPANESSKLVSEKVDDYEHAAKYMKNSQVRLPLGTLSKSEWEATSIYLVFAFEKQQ
Calls of active or inactive are those of the source. The calls are words filed in the database; no cut-off is given here.
reported-property: inhibition

In the examples that follow, each entry is paired with its recorded inhibition.
> print(dat)
                              smiles.string                              assay.target  reported.property    result
1  CCN(C[C@H]1O[C@@H](n2cnc3c(NC)ncnc32)[C@H](O)[C@@H]1O)S(=O)(=O)c1ccc(OC)c([N+](=O)[O-])c1  mRNA cap guanine-N(7) methyltransferase (Homo sapiens, UniProt O43148)         inhibition     73.3%
2  CNc1ncnc2c1ncn2[C@@H]1O[C@H](CNS(=O)(=O)c2ccc(OC)c([N+](=O)[O-])c2)[C@@H](O)[C@H]1O  mRNA cap guanine-N(7) methyltransferase (Homo sapiens, UniProt O43148)         inhibition  inactive
3  COc1ccc(S(=O)(=O)NC[C@H]2O[C@@H](n3cnc4c(=O)[nH]cnc43)[C@H](O)[C@@H]2O)cc1C#N  mRNA cap guanine-N(7) methyltransferase (Homo sapiens, UniProt O43148)         inhibition  inactive
4  CCN(C[C@H]1O[C@@H](n2cnc3c(=O)[nH]cnc32)[C@H](O)[C@@H]1O)S(=O)(=O)c1ccc(OC)c(C#N)c1  mRNA cap guanine-N(7) methyltransferase (Homo sapiens, UniProt O43148)         inhibition     88.9%
5  CCN(C[C@H]1O[C@@H](n2cnc3c(NC)ncnc32)[C@H](O)[C@@H]1O)S(=O)(=O)c1ccc(Br)c([N+](=O)[O-])c1  mRNA cap guanine-N(7) methyltransferase (Homo sapiens, UniProt O43148)         inhibition  inactive

Turning now to a further record.
Q. Hello, I am looking for reported inhibition with mRNA cap guanine-N(7) methyltransferase (Homo sapiens, UniProt O43148) for Cc1ccc(S(=O)(=O)N(C)C[C@H]2O[C@@H](n3cc(C#Cc4ccccc4)c4c(N)ncnc43)[C@H](O)[C@@H]2O)cc1Cl . Could you help?
A. inactive

The reported numbers originate from ChEMBL document CHEMBL5370550.
